Tested on: OVCAR-4
experiment.notes: NCI tumour cell line growth inhibition, 48 h
Calls of active or inactive are those of the source. Cut-off read from the data, not from the text of the source: active = GI50 up to about 1.1 µM and inactive = higher.
property.name: GI50

Some molecules with recorded GI50:
1. O=c1nc2sc3ccc4ccccc4c3n2nc1O ... 28.8 µM (inactive)
2. Cc1cc2c(C(C)C)c(O)c(O)c(/C=N/c3ccccc3)c2c(O)c1-c1c(C)cc2c(C(C)C)c(O)c(O)c(/C=N/c3ccccc3)c2c1O ... > 100 µM (inactive)
3. CSC(=S)NN=C1CCCCC1 ... 34.3 µM (inactive)
4. CCN(CC)CCN(C(=O)C(C)(C)C)c1ccccc1N ... > 100 µM (inactive)
5. CC1CC[C@@]2(OC1)OC1C[C@H]3[C@@H]4CCC5CC(O)CC[C@]5(C)[C@H]4C/C(=N\N(C)C)[C@]3(C)C1[C@@H]2C (stereo partly specified) ... 38.3 µM (inactive)

Switching to the query record.
Bench note, OVCAR-4: entry `CCN(CCCN(CC)C(=O)N[C@@H](Cc1ccccc1)C(=O)NC)C(=O)N[C@@H](Cc1ccccc1)C(=O)NC` , its GI50 = > 100 µM (inactive)
